Items are presented alongside their recorded cell viability.
- Tested on: P12-Ichikawa
- test.protocol: cell viability relative to DMSO control; higher = less cytotoxic
- assay.setup: RPMI 5 mM glucose + 10% FBS; 48 h; 15.4 µM

Below, 2 molecules whose answers are already recorded.
INSERT INTO results (given_smiles, property, value_reported) VALUES
  ('C/C=C(/C)C(=O)O[C@H]1C(C)=C[C@]23C(=O)[C@@H](C=C(CO)[C@@H](O)[C@]12O)[C@H]1[C@@H](C[C@H]3C)C1(C)C', 'cell viability', '77.8%'),
  ('C[C@@H]\1CC(=O)N\N=C1C2=CC=C(NN=C(C#N)C#N)C=C2', 'cell viability', '81.1%');

## Input Provide measured cell viability value, entry: `CC(C)C(=O)Oc1ccc(CO)cc1[C@H](CCN(C(C)C)C(C)C)c1ccccc1`
## Output 80.7%
